molecule: CN(C)c1ncnc2c(NC3OC(CO)C(O)C3O)ncnc12 (stereo not given)
measurement units: °C
melting point: 231
--
molecule: COc1ccc(C[C@@H]2COc3ccc(OCc4ccc5ccccc5n4)cc3[C@H]2O)cc1OC (relative stereo)
measurement units: °C
melting point: 175
--
molecule: OCCC1Cc2ccccc2CN1C(=S)Nc1cccnc1 (racemic)
measurement units: °C
melting point: 174
--
molecule: CC(C)(Nc1ccc(Cc2ccccc2)cc1)C(=O)O
measurement units: °C
melting point: 130

* * *

molecule: COC(=O)C(CCSC)N(C(=O)OC(C)(C)C)C(=O)c1ccc(N)c2ccccc12 (stereo unspecified)
melting point: 131 to 132 °C
--
molecule: Nc1nc2ccccc2c2c1nc(CF)n2CC1(O)CCOC1 (stereo unspecified)
melting point: 169 to 171 °C
--
molecule: CCCCCCCCCCCCCCCSCCO
melting point: 44 to 46 °C
--
molecule: COCCNc1ccc2ncnc(Nc3cccc(C)c3)c2c1
melting point: 163 to 167 °C
--
molecule: O=C(c1c(F)cccc1F)N1COCN(c2ccc(SC(F)(C(F)(F)F)C(F)(F)F)cc2F)C1=O
melting point: 85 to 86 °C
--
molecule: O=C(CC(NC(=O)c1ccccc1)c1ccccc1)Nc1n[nH]c(=S)s1 (stereo unspecified)
melting point: 266 to 267 °C
--
molecule: CCOc1ccc(CC(=O)O)cc1OCCCc1cn(-c2ccc(C(F)(F)F)cn2)nc1C1CCCCC1
melting point: 134 to 135 °C
--
molecule: O=C(COc1cccc(CCNC(=O)OCc2ccccc2)c1)Nc1nnn[nH]1
melting point: 164 to 167 °C
--
molecule: CCCCCCOc1ccc(C=[N+]([O-])C(C)(C)C)cc1
melting point: 69 °C
--
molecule: Cc1ccc2c([N+](=O)[O-])cc([N+](=O)[O-])c(O)c2n1
melting point: 295 to 300 °C
--
molecule: Cc1cc(-c2ccccc2)n2nc(Cl)nc2n1
melting point: 179 to 181 °C
--
molecule: O=S(=O)(O)c1ccc(O)c(O)c1
melting point: 254 to 255 °C
--
molecule: C[Si](C)(C)c1cc(C(F)=C(F)C(F)(F)F)c(S(N)(=O)=O)s1
melting point: 129 to 140 °C
--
molecule: CC(=O)Nc1nc(/C=C/C(=O)N2CCN(C(=O)c3cc(C(F)(F)F)cc(C(F)(F)F)c3)[C@H](Cc3c[nH]c4ccccc34)C2)cs1
melting point: 167 to 172 °C
--
molecule: c1ccn(Nc2ccncn2)c1
melting point: 134 to 136 °C
--
molecule: CC(C)=CC(n1cncn1)C(C)(O)C(C)(C)C (stereo unspecified)
melting point: 115 to 116 °C
--
molecule: CC(O)Cc1c2c(cc3c(=O)cc(C(=O)O)oc13)CCCC2 (stereo unspecified)
melting point: 235 °C
--
molecule: CC(=O)c1nc(-c2ccc(C)nc2Cl)[nH]c1C
melting point: 156 to 158 °C
--
molecule: Cc1nc(C(O)C2CCc3c(C)c4ccccc4n3C2=O)c[nH]1 (stereo unspecified)
melting point: 210 to 211 °C
--
molecule: c1ccc2c(c1)CCc1nc(-c3ccncc3)oc1-2
melting point: 129 to 130 °C
--
molecule: Cn1nc(-c2ccc(Cl)cc2)n(Cc2ccccc2)c1=O
melting point: 90 to 91 °C
--
molecule: COc1ccc(C2(C)C(=O)c3c(N4CCN(C)CC4)cc(Cl)cc3N(Cc3ccccc3)C2=O)cc1 (stereo unspecified)
melting point: 66 to 67 °C
--
molecule: CCOC(=O)C(Cl)=Cc1cc(NC(=O)C2=C(C(N)=O)CCCC2)ccc1Cl
melting point: 185 to 186 °C
--
molecule: COC(=O)c1ccc(S(=O)(=O)N2CCC(Sc3cc(C(C)(C)C)c(O)c(C(C)(C)C)c3)CC2)n1C
melting point: 181 to 183 °C
--
molecule: NC(=O)c1nccn1C1Cc2ccccc2C1=O (stereo unspecified)
melting point: 183 °C
--
molecule: COC(=O)C(C)(C)CCCOc1cc(C)c(N2C(=O)c3ccccc3C2=O)cc1C
melting point: 109 to 111 °C
--
molecule: CC(C)OP(=O)(OC(C)C)c1nc(N)nc(N)n1
melting point: > 400 °C
--
molecule: COCc1ccc(Oc2cc(OC(C)C)c3[nH]c(C4=NCC(CC(=O)NC5CC5)S4)cc3c2)cn1 (stereo unspecified)
melting point: 100 to 101 °C
--
molecule: CCOC(=O)C1=C(C)NC(CN(C)C)=C(C(=O)OCC)C1c1ccccc1Br (stereo unspecified)
melting point: 142 to 143 °C
--
molecule: CCCCNC(=O)Nc1ccc(N2CCCC2)cc1C(=O)NCC1CCN(C(c2ccccc2)c2ccccc2)CC1
melting point: 200 to 202 °C
--
molecule: O=C(NC12CC3CC(CC(C3)C1)C2)c1ncn(-c2ccccc2)c1Br
melting point: 229 to 232 °C
--
molecule: COc1ccc(C(=O)Nc2ccc(OCCCl)cc2)c(N)c1
melting point: 167 to 168 °C
--
molecule: NNC(=O)c1ncc2[nH]c3ccccc3c2n1
melting point: > 340 °C
--
molecule: CCOC(=O)C=CN1C(C)(C)CC(=O)CC1(C)C
melting point: 145 °C
--
molecule: C[C@@H](n1cnc2cc(-c3ccc(Cl)cc3)sc2c1=O)[C@](O)(Cn1cncn1)c1ccc(F)cc1F
melting point: 158 to 160 °C
--
molecule: FC(F)(F)c1[nH]c(-c2cccc(Cl)c2)nc1Br
melting point: 137 to 144 °C
--
molecule: Cc1ccc(-c2ccc3c(c2)C=C(C(=O)Nc2ccc(CCl)cc2)CCO3)cc1
melting point: 164 °C
--
molecule: O=S1(=O)NCN(C2CC2)c2c(C(F)(F)F)cccc21
melting point: 165 to 167 °C
--
molecule: Nc1ccc(S(=O)(=O)Nc2cccc3c(Cl)c[nH]c23)cc1
melting point: 174 to 176 °C
--
molecule: CCOC(=O)c1ccc(Nc2ccc([N+](=O)[O-])cc2N)cc1
melting point: 145 to 150 °C
--
molecule: CC1=NC(=NOC(=O)N(C)C)SC1(C)C
melting point: 108 to 110 °C
